molecular target: Human immunodeficiency virus type 1 integrase (Human immunodeficiency virus 1, UniProt Q7ZJM1)
Sequence (Q7ZJM1 whole entry): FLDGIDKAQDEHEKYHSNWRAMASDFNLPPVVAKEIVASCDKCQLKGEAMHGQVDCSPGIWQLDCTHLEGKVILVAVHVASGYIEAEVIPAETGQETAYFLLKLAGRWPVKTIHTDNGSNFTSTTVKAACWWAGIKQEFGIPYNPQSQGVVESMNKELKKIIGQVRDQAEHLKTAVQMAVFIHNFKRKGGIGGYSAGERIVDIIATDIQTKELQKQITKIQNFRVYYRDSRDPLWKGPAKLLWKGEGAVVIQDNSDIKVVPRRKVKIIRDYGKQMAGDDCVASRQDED
observation_type: IC50

> print(dat)
                                        smi  observation.type    result
1  O=C1c2c(c(-c3c(F)cccc3F)c3cccnc3c2O)CN1Cc1ccc(F)cc1              IC50   0.33 µM
2  O=C(O)/C(O)=C/C(=O)c1cccc(Cc2ccc(F)cc2)c1              IC50  < 0.1 µM
3  CN1CCN(c2cc(C(=O)NCc3ccc(F)cc3)c(O)c3ncccc23)CC1              IC50   0.04 µM
4         O=C(NCc1ccc(F)cc1)c1ccc2cccnc2c1O              IC50   0.03 µM
